- Target or test system: IRAK4 (Homo sapiens, UniProt Q9NWZ3)
- Construct: knocking-in a HiBiT fusion tag into the C-terminal of the IRAK4 gene in 293T cells; host or cells: 293T cells, knock-in of HiBiT at the endogenous IRAK4 locus
- Sequence (Q9NWZ3 1-460): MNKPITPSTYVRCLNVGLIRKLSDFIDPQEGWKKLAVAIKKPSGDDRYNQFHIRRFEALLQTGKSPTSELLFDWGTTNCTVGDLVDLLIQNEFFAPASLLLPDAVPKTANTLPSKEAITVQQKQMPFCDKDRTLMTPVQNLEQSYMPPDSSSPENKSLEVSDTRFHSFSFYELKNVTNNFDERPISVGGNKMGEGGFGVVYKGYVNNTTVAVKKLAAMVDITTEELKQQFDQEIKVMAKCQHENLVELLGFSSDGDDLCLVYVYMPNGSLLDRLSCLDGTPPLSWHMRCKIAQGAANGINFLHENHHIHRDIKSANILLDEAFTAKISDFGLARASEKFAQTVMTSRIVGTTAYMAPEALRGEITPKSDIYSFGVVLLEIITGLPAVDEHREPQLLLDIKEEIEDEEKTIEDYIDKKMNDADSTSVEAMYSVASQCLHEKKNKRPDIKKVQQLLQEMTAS
- Test protocol: IRAK4 degradation assay using the HiBiT Method
- Type: cell-based
- Run conditions: 293T cells expressing HiBiT-tagged IRAK4; 6-hour incubation; Nano-Glo HiBiT Lytic Assay luminescence
- Method: Selected compounds were tested in an IRAK4 degradation assay using the HiBiT Method. Phenol red-free Dulbecco's modified Eagle medium (DMEM) and fetal bovine serum (FBS) were purchased from Gibco (Grand Island, NY, USA). […] IRAK4 degradation was measured via the quantification of luminescent signals using the Nano-Glo© HiBiT Lytic Assay kit. […] Luminescence was acquired using an EnVision® Multilabel Reader (PerkinElmer, Santa Clara, CA, USA).
Measured metric: DC50

Compound | Target or test system | DC50
CC(C)Oc1cc2nc(C3CCN(CC(=O)N4CCN(c5ccc(NC6CCC(=O)NC6=O)cc5)CC4)CC3)cn2cc1NC(=O)c1cccc(C(F)(F)F)n1 (centres unmarked) | IRAK4 (Homo sapiens, UniProt Q9NWZ3) | 100 to 500 nM
CC(C)Oc1cc2nc(C3CCN(CC(=O)N4CCC(c5ccc(NC6CCC(=O)NC6=O)cc5)CC4)CC3)cn2cc1NC(=O)c1cccc(C(F)(F)F)n1 (centres unmarked) | IRAK4 (Homo sapiens, UniProt Q9NWZ3) | 10 to 100 nM

Report DC50 for CC(C)Oc1cc2nc(C3CCN(CC(=O)N4CCC(c5ccc(NC6CCC(=O)NC6=O)cc5)CC4)CC3)cn2cc1NC(=O)c1ccncn1 (centres unmarked) tested on IRAK4 (Homo sapiens, UniProt Q9NWZ3).
100 to 500 nM

Input `CC(C)Oc1cc2nc(C3CCN(CC(=O)N4CCN(c5cc6c(cc5F)c(N5CCC(=O)NC5=O)nn6C)CC4)CC3)cn2cc1NC(=O)c1cccc(C(F)(F)F)n1`
10 to 100 nM

Input CC(C)Oc1cc2nc(C3CN(CCC(=O)N4CCC(c5ccc(NC6CCC(=O)NC6=O)cc5)CC4)C3)cn2cc1NC(=O)c1cccc(C(F)(F)F)n1 (centres unmarked)
100 to 500 nM

Input CC(C)Oc1cc2nc(C3CCC(CN4CCC(c5ccc(C6CCC(=O)NC6=O)cc5)CC4)CC3)cn2cc1NC(=O)c1cccc(C(F)(F)F)n1 (centres unmarked)
100 to 500 nM

Input CC(C)Oc1cc2nc([C@H]3CC[C@H](CN(C)C4CCN(c5cccc(C6CCC(=O)NC6=O)c5)CC4)CC3)cn2cc1NC(=O)c1cccc(C(F)(F)F)n1 (some centres unmarked)
100 to 500 nM
